Test system: ACHN
Assay: NCI tumour cell line growth inhibition, 48 h
The source made the active and inactive calls. No stated cut-off is given here; in the data, active = GI50 up to about 1.1 µM and inactive = higher.
attribute-measured: GI50

1. NS(=O)(=O)c1c(O)c2ccccc2oc1=O: > 100 µM (inactive)
2. CC(=O)NC(C=O)C(O[C@H](C)C(=O)NC(C)C(=O)NC(CCC(N)=O)C(=O)OCc1ccccc1)C(O)C(O)COC(=O)CCNc1c2ccccc2nc2cccc([N+](=O)[O-])c12 (stereo not given in full): 2.94 µM (inactive)
3. COc1ccc(CCC2c3cc(OC)c(OC)cc3CCN2C)cc1OC (stereo not given): > 100 µM (inactive)
4. CCCC1C(=O)Nc2cccc3ncn(c23)C1=O (stereo not given): > 100 µM (inactive)
5. N#CC(C#N)=NNc1ccc2cn[nH]c2c1: 33.1 µM (inactive)
6. CN(C)CCCSc1nc2c(c(=N)n1-c1ccccc1)c(=S)n(-c1ccccc1)c(=S)n2-c1ccccc1: 1.82 µM (inactive)
7. CC(=O)NCc1nc(C#N)c(N)o1: > 100 µM (inactive)
8. COc1ccc(-c2cc(-c3ccncc3)nc(N)c2-c2ccc(F)cc2)cc1: 3.76 µM (inactive)
9. COc1ccc2[nH]c3c(c2c1)[C@H](c1ccccc1)C[C@@H]1C(=O)N(c2ccccc2)C(=O)[C@H]31: 22.1 µM (inactive)
10. CN1CSC(=S)N(c2cccc(C(F)(F)F)c2)C1: 19 µM (inactive)

---

System: OVCAR-3
Experiment: NCI tumour cell line growth inhibition, 48 h
Activity calls are given as the source filed them. Rule as the data show it: active = GI50 up to about 1.1 µM and inactive = higher.
Outcomes: 1 for active, -1 for inactive

1. O=S1(=O)c2ccccc2N2CCCc3cc(Cl)cc1c32: -1
2. CCOc1ccccc1NC(=O)C(=O)CC(=O)c1c(C)[n+]([O-])c2ccccc2[n+]1[O-]: -1
3. COC(=O)c1c/c(=N\NC(=O)CC(=O)Nc2ccccc2OC)c2ccccc2o1: -1
4. Cc1cc(C)[n+](CCOc2ccc(/C(=C(/Cl)c3ccccc3)c3ccccc3)cc2)c(C)c1.[O-][Cl+3]([O-])([O-])[O-]: 1
5. C=C1C(=O)O[C@H]2[C@H]3O[C@@H](C[C@@H]12)[C@@]1(C)CC[C@H](O1)C(C)=CCC[C@H]3C: -1
6. CN1CC[C@]2(c3cccc(O)c3)CC(=O)/C(=C/c3ccccc3)[C@@H]1C2.[O-][Cl+3]([O-])([O-])O: -1
7. CCN(CC)CCN1C(=O)c2cccc3cc(N)cc(c23)C1=O: -1
8. O=[N+]([O-])c1nc(-c2ccccn2)[nH]c1[N+](=O)[O-]: -1
9. O=C1C=C(NCCc2ccc(O)cc2)C(=O)C=C1NCCc1ccc(O)cc1: -1
10. COc1cc2c(oc(=O)c3cc4ccoc4c(OC)c32)c2cccc(O)c12: -1
11. O=C(Nc1ccc(Cl)c(Cl)c1)N1N=C2c3ccccc3CCC2C1c1ccc(Cl)cc1 (stereo not given): -1
12. CN(C)S(=O)(=O)c1ccc(Nc2ccc(O)c3c2C(=O)c2c([N+](=O)[O-])ccc(O)c2C3=O)cc1: -1
13. O=C(O)C1(Cc2ccccc2)Cc2ccccc2C1: -1
14. Cc1ccc([N+](=O)[O-])cc1S(=O)(=O)Nc1ccc(C(=O)/C=C/c2cccs2)cc1: -1
15. CSc1nc(SC)c2c(C)c(Br)[nH]c2n1: -1
16. CCC(C)C(=O)OC1C(=O)OC2CC3C(C)=CC(=O)C(O)C3(C)C3C4(O)OCC23C1C(C)C4O (stereo not given): 1
17. CCOC(=O)c1ccc(N2C(=O)Cc3ccccc3C2=O)cc1: -1
18. C[C@H]1[C@H](C)N1CC(O)Cn1ccnc1[N+](=O)[O-] (stereo not given in full): -1
19. O=C(CC(=O)C1CCOC1=O)C(=O)Nc1cccc(Cl)c1 (stereo not given): -1
20. Cn1nc2c(c1N)Cc1c(nn(C)c1N)-c1ccccc1-2: -1

---

Recorded GI50 values for a group of compounds are listed next.
Test system: K562
Experiment: NCI tumour cell line growth inhibition, 48 h
Calls of active or inactive are those of the source. No stated cut-off is given here; in the data, active = GI50 up to about 1.1 µM and inactive = higher. Where a SMILES comes first, the peptide text is derived from it. The star is where a group is joined. Boc = CC(C)(C)OC(=O)*
attribute-measured: GI50

1. COc1ccc(-c2cc(-c3ccncc3)nc(N)c2-c2ccc(F)cc2)cc1: > 100 µM (inactive)
2. CC1=NN(c2nc(N)nc(/C(C#N)=C/c3ccncc3)n2)C(C)(C)C1: 13.5 µM (inactive)
3. CC(C)C/N=C(\N)N=C(N)N: > 100 µM (inactive)
4. O=C1c2ccccc2C(=O)N1CCCCCCNOCCCN1C(=O)c2ccccc2C1=O: 29.7 µM (inactive)
5. CC(=O)C(CN(Cc1ccccc1)Cc1ccccc1)C(c1ccccc1)c1c(O)c2ccccc2oc1=O (stereo unspecified): > 100 µM (inactive)
6. CCOC(=O)CCC(NC(=O)c1ccc(/N=C/c2nc3cc(C(F)(F)F)ccc3nc2-c2ccccc2)cc1)C(=O)OCC (stereo unspecified): > 50 µM (inactive)
7. C[N+]1=C(c2cccnc2/C=N/O)OCC1(C)C: > 100 µM (inactive)
8. O=C(CCC(=O)C1Cc2ccccc2C1=O)Nc1cccc(C(F)(F)F)c1 (stereo unspecified): > 100 µM (inactive)
9. N#Cc1ccc(OCCSCCCCCCCCCCSCCOc2ccc(C#N)cc2)cc1: > 100 µM (inactive)
10. O=S1(=O)c2ccccc2N2CCCc3cc(Cl)cc1c32: > 100 µM (inactive)
11. CCOC(=O)[C@@H]1C2C(=C[C@H]3[C@H]1C(=O)N1CCCC[C@H]31)CCCN2C(=O)OCc1ccccc1 (stereo partly specified): 30.8 µM (inactive)
12. CC12CCC(C(Nc3ccccn3)C1=O)C2(C)C (stereo unspecified): > 100 µM (inactive)
13. COc1cc2c(oc(=O)c3cc4ccoc4c(OC)c32)c2cccc(O)c12: > 100 µM (inactive)
14. COC(=O)c1cc(NC(=O)c2cc(NC(=O)c3cc([N+](=O)[O-])cn3C)cn2C)cn1C: 61.9 µM (inactive)
15. Cc1nc(O)nc2nc3ccc(Cl)cc3c(NCCNCCO)c12: 8.59 µM (inactive)
16. CCOC(=O)C(CC(C)C)NC(=O)C(Cc1ccccc1)NC(=O)CNC(=O)OC(C)(C)C (stereo not drawn) (Boc-Gly-Phe-Leu-OEt; configuration not given here): 19 µM (inactive)
17. OCC(O)C(Cl)CCl (stereo unspecified): > 100 µM (inactive)
18. CN(C)CCCNC(=O)c1cc(NS(=O)(=O)c2ccc3c(c2)C(=O)c2ccccc2C3=O)cn1C: 30 µM (inactive)
19. NCCNc1ncnc2ccc(Cl)cc12: > 100 µM (inactive)
20. CCN(CC)CCN1C(=O)c2cccc3cc(N)cc(c23)C1=O: 5.98 µM (inactive)
21. CCC1CCc2c(c(=O)oc3c2cc(OC)c2cccc(OC)c23)C1 (stereo unspecified): 40.9 µM (inactive)

---

Test system: LXFL 529
Test: NCI tumour cell line growth inhibition, 48 h
Active and inactive are the calls of the source. No stated cut-off is given here; in the data, active = GI50 up to about 1.1 µM and inactive = higher.
attribute-measured: GI50

1. O=C(CO[N+](=O)[O-])OC/C=C/c1ccccc1: > 100 µM (inactive)
2. O=C(CC(=O)N1N=C(c2ccccc2)C(/N=N/c2ccc(Cl)cc2)C1=O)Nc1ccccc1Cl (configuration not stated): 26.7 µM (inactive)
3. COC(CN1C(=O)c2cccc3cccc(c23)C1=O)OC: 62.7 µM (inactive)
4. COc1ccc2[nH]c3c(C)cc([N+](=O)[O-])c(C)c3c2c1: 25.5 µM (inactive)
5. Cc1ccc(NC(=O)CC2SC(=N)NC2=O)cc1C (configuration not stated): > 100 µM (inactive)
6. CC12CCC3=C(CSC4=C3CSc3ccccc34)C1=CCCC2=O (configuration not stated): 37.1 µM (inactive)
7. CCOC(=O)c1ccc(N2C(=O)Cc3ccccc3C2=O)cc1: > 100 µM (inactive)

---

The entries below are paired with their reported GI50.
System: HT-29
Test: NCI tumour cell line growth inhibition, 48 h
Calls of active or inactive are those of the source. Rule as the data show it: active = GI50 up to about 1.1 µM and inactive = higher.
attribute-measured: GI50

1. Cc1nn(C(=O)c2ccccc2O)c2c1C(c1ccco1)SC(=N)N2 (stereo unspecified): > 10 µM (inactive)
2. COc1ccc(CCC2c3cc(OC)c(OC)cc3CCN2C)cc1OC (stereo unspecified): > 100 µM (inactive)
3. Cc1cccc(C)c1NC(=O)CCC(=O)NNc1nnc(C)n1N: > 100 µM (inactive)
4. CCOC(=O)/C(=C\c1c[nH]c2ccccc12)P(=O)(OCC)OCC: 28.4 µM (inactive)
5. COC(=O)C1CCc2c(OC)ccc(OC)c2C1=O (stereo unspecified): > 100 µM (inactive)
6. O=[N+]([O-])c1ccc(CSc2c3ccccc3nc3ccccc23)cc1: 2.28 µM (inactive)
